# study system: UniProtKB P00918
# protocol: CA inhibition by the esterase assay, hCA II
# assay setup: human recombinant enzyme, 4-nitrophenylacetate as substrate
outcome measure: IC50 (µM)

// solved cases for IC50 follow
The molecule Cc1cc(=O)oc2cc(OCc3cn([C@@H]4O[C@H](CO)[C@@H](O)[C@H](O)[C@H]4O)nn3)ccc12 [Compound 10i] showed IC50 equal to 14

Recorded result, O=c1ccc2ccc(OCc3cn([C@@H]4O[C@H](CO)[C@@H](O)[C@H](O)[C@H]4O)nn3)cc2o1 [Compound 10a] , IC50: 21.5

(a) O=c1ccc2ccc(OCc3cn([C@@H]4O[C@H](CO)[C@H](O)[C@H](O)[C@H]4O)nn3)cc2o1 [Compound 10b]
(b) O=c1ccc2ccc(OCc3cn([C@@H]4O[C@H](CO)[C@@H](O)[C@H]4O)nn3)cc2o1 [Compound 10h]
Q) Form field 'greater IC50' accepts a or b ; which applies? Label of pick, please.
A) a
(a: 31.3 µM, b: 19 µM)
